Tested on: DLD1
Assay: TCF/Wnt firefly luciferase reporter signal relative to plate median (fraction of plate median); higher = higher Wnt reporter signal
Conditions: 5 µM; treatment time 24 h; reporter: 7TFP
metric: TCF/Wnt firefly luciferase reporter signal
Please respond with just the number, no unit label.

Bench note: what TCF/Wnt firefly luciferase reporter signal did O=c1oc2c(O)c(O)cc3c(=O)oc4c(O)c(O)cc1c4c23 show?
0.971

Recorded TCF/Wnt firefly luciferase reporter signal for CC(C)c1nc(N(C)S(C)(=O)=O)nc(-c2ccc(F)cc2)c1/C=C/[C@@H](O)C[C@@H](O)CC(=O)O , please?
0.984

Data request, read-out TCF/Wnt firefly luciferase reporter signal, for COc1ccc([C@@H]2CC(=O)c3c(O)cc(O[C@@H]4O[C@H](CO[C@@H]5O[C@@H](C)[C@H](O)[C@@H](O)[C@H]5O)[C@@H](O)[C@H](O)[C@H]4O)cc3O2)cc1O
1.04

// TCF/Wnt firefly luciferase reporter signal lookup, key: COc1c(OC)c2occc2c2oc(=O)ccc12
0.802

----------
Tested on: DLD1
Test: cell viability (CellTiter-Glo) relative to plate median (fraction of plate median); higher = more viable cells
Conditions: 5 µM; treatment time 24 h; reporter: 7TFP
Answer each item with its documented cell viability.
In your answer, state the number alone without any accompanying words.

Looking for the measured cell viability of C=C(NC(=O)C(=C)NC(=O)c1csc(C2=N[C@@H]3c4csc(n4)[C@H]4NC(=O)c5csc(n5)[C@H]([C@](C)(O)[C@@H](C)O)NC(=O)[C@H]5CSC(=N5)/C(=C/C)NC(=O)[C@H]([C@@H](C)O)NC(=O)c5csc(n5)[C@]3(CC2)NC(=O)[C@H](C)NC(=O)C(=C)NC(=O)[C@H](C)NC(=O)[C@H]([C@@H](C)CC)N[C@@H]2C=Cc3c([C@H](C)O)cc(nc3[C@H]2O)C(=O)O[C@@H]4C)n1)C(N)=O , can you help?
0.927

I would be grateful if you could share the reported cell viability for CC(C)[C@H](NC(=O)[C@@H]1CCCN1)C(=O)N1CCNC(=O)C1=O .
1.04

I'd like to know its cell viability. The compound in question is COc1cc(C2Oc3cc([C@H]4Oc5cc(O)cc(O)c5C(=O)[C@@H]4O)ccc3OC2CO)ccc1O (some centres undefined)
1.09

Fill blank: measured cell viability of the compound CC(=O)N1CCN(c2ccc(OCC3COC(Cn4ccnc4)(c4ccc(Cl)cc4Cl)O3)cc2)CC1 (centres undefined) is ____.
0.997

Can you look up the measured cell viability of O=C1C(O)=C(O)C(=O)C(O)=C1O for me?
0.96

Can you share its cell viability? I mean this compound: O=c1cc(-c2ccc(O)c(O)c2)oc2cc(O[C@@H]3O[C@H](CO)[C@@H](O)[C@H](O)[C@H]3O)cc(O)c12 [Luteolin-7-O-glucoside (102)]
0.908

So what's the measured cell viability for this one? CCCCCCCCCCCCCCCC[N+](C)(C)C
0.947

Entry CC[C@H]1C(=O)OC[C@@H]1Cc1cncn1C has what cell viability?
0.942

Any idea what cell viability was measured for O=C(O)c1cn(C2CC2)c2cc(N3CCNCC3)c(F)cc2c1=O ?
0.964

Please report the recorded cell viability for Clc1ccc(COC(Cn2ccnc2)c2ccc(Cl)cc2Cl)cc1 (centres undefined) .
0.944

Name the recorded cell viability for COc1cc(Cc2cnc(N)nc2N)cc(OC)c1OC .
0.988

Query (compound): OCc1ccccc1O[C@@H]1O[C@H](CO)[C@@H](O)[C@H](O)[C@H]1O ; field requested: cell viability
0.971

Sample C=C[C@@](C)(O)CCC1C(=C)CCC2[C@@](C)(CO)CCC[C@]12C (some centres undefined) — what was its cell viability?
1

Give the measured cell viability of CC(=O)O[C@]1(C(C)=O)CC[C@H]2[C@@H]3C[C@H](C)C4=CC(=O)CC[C@]4(C)[C@H]3CC[C@@]21C .
1.03

I would be grateful if you could share the reported cell viability for COc1cccc2c(C)cc(=O)[nH]c12 .
1.05

Entry under review: CCOc1nc2cccc(C(=O)OC(C)OC(=O)OC3CCCCC3)c2n1Cc1ccc(-c2ccccc2-c2nn[nH]n2)cc1 (centres undefined) . Reported cell viability?
0.864

Which cell viability reading was recorded for the compound CC(=O)O[C@H]1CC[C@]2(C)[C@H]3CC[C@@]4(C)[C@H](c5ccoc5)OC(=O)[C@H]5O[C@]54[C@]3(C)[C@H](OC(C)=O)C[C@H]2C1(C)C [3beta-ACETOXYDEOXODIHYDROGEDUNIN] ?
1.03

For the compound Cc1cccc(Nc2cc(Cl)nc(SCC(=O)O)n2)c1C , what cell viability is on record?
0.964

For the compound CN(C)[C@@H]1C(O)=C(C(N)=O)C(=O)[C@@]2(O)C(O)=C3C(=O)c4c(O)cccc4[C@@](C)(O)[C@H]3C[C@@H]12 , what cell viability is on record?
0.988

# query: cell viability of entry CN1CC(=O)N2[C@H](c3ccc4c(c3)OCO4)c3[nH]c4ccccc4c3C[C@@H]2C1=O
0.995

Need cell viability of O=C1NC(Cc2ccc(O)cc2)C(=O)N2CCCC12 (centres undefined) [cyclo(prolyltyrosyl)] , thanks.
0.966

Value lookup for cell viability; key = CC1=CC2C(CC1=O)C(C)=CCC2C(C)C (centres undefined)
0.983

I'd like to know its cell viability. The compound in question is CN(C)CCCO[C@@H]1[C@H]2OC(C)(C)O[C@H]2O[C@@H]1[C@H](O)CO
1.04

Bench note: what cell viability did NCCOB(c1ccccc1)c1ccccc1 show?
0.968

Consider the compound shown here: CC1(C)C=Cc2cc3ccc(=O)oc3cc2O1 What is its recorded cell viability?
0.979

Sample C=CC(C1=CC(=O)C=CC1=O)c1ccccc1 (centres undefined) — what was its cell viability?
0.965

Consider the compound CC(=O)OC1CCC23CC1(C)CCC2C(C)(C)CC3OC(C)=O (centres undefined) and give its measured cell viability.
0.999

Requested field: cell viability. Item: NS(=O)(=O)c1cc2c(cc1C(F)(F)F)NCNS2(=O)=O
1.02

Which cell viability reading was recorded for the compound CCC1(C)OC(=O)N(C)C1=O (centres undefined) ?
1.04

# get_value(readout='cell viability', item= C=CC(N)CCC(=O)O (centres undefined) )
1.06

I'd like to know its cell viability. The compound in question is COc1c(O)cc2c(-c3ccccc3)cc(=O)oc2c1OC
0.989

What cell viability value was documented for this compound, COc1cccc(O)c1O ?
0.938

Can you share its cell viability? I mean this compound: CCN(CC)CCOC(=O)c1ccc(N)cc1
1.01

Given the compound O=C(O)CCCC[C@@H]1SC[C@@H]2NC(=O)N[C@@H]21 , what is its reported cell viability?
1.03

// lookup cell viability for CC(CCc1ccccc1)NCC(O)c1ccc(O)c(C(N)=O)c1 (centres undefined)
1.01

Quick one: cell viability for CCOC(=O)C1=C[C@]2(CC)CCCN3CCc4c(n1c1ccccc41)[C@@H]32 ?
0.916

# get_value(readout='cell viability', item= COc1cnc(NS(=O)(=O)c2ccc(N)cc2)nc1 )
0.973

Item CC(C)C1NC(=O)C2CCCN2C1=O (single isomer, unassigned; isomere) [Cyclo(prolylvalyl) (Isomere)] has what recorded cell viability?
1

Need cell viability, item O=[N+]([O-])c1cccc2cn[nH]c12
1.01
